# assay_system: α-1A adrenoceptor (rat vas deferens) (Rattus norvegicus, UniProt P43140)
# Construct: PE-induced contraction of rat vas deferens; from tissue; host or cells: isolated rat vas deferens
# Sequence (P43140 whole entry): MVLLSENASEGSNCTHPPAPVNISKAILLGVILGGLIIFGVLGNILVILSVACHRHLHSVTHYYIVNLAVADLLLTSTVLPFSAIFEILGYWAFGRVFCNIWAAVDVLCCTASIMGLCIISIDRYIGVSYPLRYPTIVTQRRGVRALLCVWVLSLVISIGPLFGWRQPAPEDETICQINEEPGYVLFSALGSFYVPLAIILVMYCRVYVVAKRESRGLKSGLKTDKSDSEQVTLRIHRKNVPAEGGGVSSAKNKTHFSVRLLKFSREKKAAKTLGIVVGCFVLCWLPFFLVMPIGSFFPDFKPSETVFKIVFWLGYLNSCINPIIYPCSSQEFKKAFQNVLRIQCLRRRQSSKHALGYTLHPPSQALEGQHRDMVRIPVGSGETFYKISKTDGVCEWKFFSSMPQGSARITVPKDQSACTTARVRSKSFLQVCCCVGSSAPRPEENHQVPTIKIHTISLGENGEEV
# assay_notes: Functional antagonism of phenylephrine-induced contraction of rat vas deferens
# Type: cell-based
# condition: vs phenylephrine-induced contraction, Schild plot; read-out: pA2 Rat Vas Deferens [α-1A] (converted)
Structures can show the parent of a compound that is named as a salt.

compound	Kb (nM)
COc1cccc2c1CC[C@H]1CN(CCn3c(=O)[nH]c4c(C)csc4c3=O)C[C@@H]21 (relative stereo) [Example 2, hydrochloride]	3.98
COc1cccc2c1CC[C@H]1CN(CCn3c(=O)[nH]c4sccc4c3=O)C[C@@H]21 [Example 13, hydrochloride]	7.59
COc1cccc2c1CC[C@H]1CN(CCn3c(=O)[nH]c4c(C)c(C)ccc4c3=O)C[C@@H]21 [Example 80, hydrochloride]	0.891

----------
# assay_system: α-1A adrenoceptor (dog prostate)
# Construct: from tissue; host or cells: canine prostate strips
# Sequence (P35348 whole entry): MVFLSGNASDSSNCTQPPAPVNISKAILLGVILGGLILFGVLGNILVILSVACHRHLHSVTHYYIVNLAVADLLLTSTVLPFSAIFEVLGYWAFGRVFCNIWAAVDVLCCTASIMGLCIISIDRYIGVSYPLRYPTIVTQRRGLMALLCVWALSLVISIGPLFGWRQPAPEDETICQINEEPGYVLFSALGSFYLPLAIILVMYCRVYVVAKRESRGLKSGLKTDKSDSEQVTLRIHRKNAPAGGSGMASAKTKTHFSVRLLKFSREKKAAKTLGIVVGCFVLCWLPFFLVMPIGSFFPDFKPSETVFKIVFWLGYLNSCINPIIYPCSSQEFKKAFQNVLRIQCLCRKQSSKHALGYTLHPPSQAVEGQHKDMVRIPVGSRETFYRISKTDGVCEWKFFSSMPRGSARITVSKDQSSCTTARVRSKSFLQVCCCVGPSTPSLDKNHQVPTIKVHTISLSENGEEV
# assay_notes: Functional antagonism of phenylephrine-induced contraction of canine prostate strips
# Type: cell-based, dog (canine)
# condition: vs phenylephrine-induced contraction, Schild plot; read-out: pA2 Dog Prostate [α-1A] (converted)
Where a name gives a salt, the structure may show the parent alone.
Consider the following partition of reported Kb into named classes: band 1: < 0.9 nM; band 2: ≥ 0.9 nM and < 2 nM; band 3: ≥ 2 nM

compound	label_value
COc1cccc2c1CC[C@H]1CN(CCn3c(=O)[nH]c4cc(C(N)=O)ccc4c3=O)C[C@@H]21 [Example 46, hydrochloride]	band 1
COc1cccc2c1CC[C@H]1CN(CCn3c(=O)[nH]c4ccc(F)cc4c3=O)C[C@@H]21 (relative stereo) [Example 15, hydrochloride]	band 3
COc1ccc2c(=O)n(CCN3C[C@@H]4CCc5c(OC)cccc5[C@@H]4C3)c(=O)n(C)c2c1 [Example 50, hydrochloride]	band 1
COc1cccc2c1CC[C@H]1CN(CCn3c(=O)[nH]c4cccc(C)c4c3=O)C[C@@H]21 (relative stereo) [Example 12, hydrochloride]	band 3
COc1cccc2c1CC[C@H]1CN(CCn3c(=O)[nH]c4c(C)cccc4c3=O)C[C@@H]21 (relative stereo) [Example 19, hydrochloride]	band 3
COc1cccc2c1CC[C@H]1CN(CCn3c(=O)[nH]c4cnccc4c3=O)C[C@@H]21 (relative stereo) [Example 24, dihydrochloride]	band 2
COc1cccc2c1CC[C@H]1CN(CCn3c(=O)[nH]c4ncncc4c3=O)C[C@@H]21 [Example 88, hydrochloride]	band 2
COc1cccc2c1CC[C@H]1CN(CCn3c(=O)[nH]c4c(OC)cccc4c3=O)C[C@@H]21 (relative stereo) [Example 9, hydrochloride]	band 1
COc1ccccc1-c1csc2c(=O)n(CCN3C[C@@H]4CCc5c(OC)cccc5[C@@H]4C3)c(=O)[nH]c12 [Example 85, hydrochloride]	band 3
COc1cccc2c1CC[C@H]1CN(CCn3cnc4ccccc4c3=O)C[C@@H]21 (relative stereo) [Example 34, dihydrochloride]	band 2
COc1cccc2c1CC[C@H]1CN(CCn3c(=O)[nH]c4cc([N+](=O)[O-])ccc4c3=O)C[C@@H]21 [Example 74, hydrochloride]	band 2
COc1cccc2c1CC[C@H]1CN(CCn3c(=O)[nH]c4cc(NC(C)=O)ccc4c3=O)C[C@@H]21 [Example 75, hydrochloride]	band 1

----------
# assay_system: α-1B adrenoceptor (rat spleen) (Rattus norvegicus, UniProt P15823)
# Construct: PE-induced contraction of rat spleen; from tissue; host or cells: isolated rat spleen
# Sequence (P15823 whole entry): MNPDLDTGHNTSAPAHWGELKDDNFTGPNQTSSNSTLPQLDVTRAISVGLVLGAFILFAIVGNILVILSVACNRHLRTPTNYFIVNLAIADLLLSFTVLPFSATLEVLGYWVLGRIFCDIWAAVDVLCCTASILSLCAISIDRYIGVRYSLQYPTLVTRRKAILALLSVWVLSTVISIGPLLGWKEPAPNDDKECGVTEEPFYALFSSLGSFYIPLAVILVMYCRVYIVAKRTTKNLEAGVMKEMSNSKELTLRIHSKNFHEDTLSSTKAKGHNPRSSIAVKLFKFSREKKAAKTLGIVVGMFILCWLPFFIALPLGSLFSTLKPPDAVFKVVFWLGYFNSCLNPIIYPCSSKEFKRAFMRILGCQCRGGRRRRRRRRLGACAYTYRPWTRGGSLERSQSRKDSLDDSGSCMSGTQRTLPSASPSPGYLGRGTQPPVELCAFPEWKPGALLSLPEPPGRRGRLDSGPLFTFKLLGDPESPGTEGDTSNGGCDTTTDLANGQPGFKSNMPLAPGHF
# assay_notes: Functional antagonism of phenylephrine-induced contraction of rat spleen
# Type: cell-based
# condition: vs phenylephrine-induced contraction, Schild plot; read-out: pA2 Rat Spleen [α-1B] (converted)
Counter-ions that a name gives are not always drawn.
observable: Kb (nM)

compound	observable	output_unit	experimental_result
COc1cccc2c1CC[C@H]1CN(CCn3c(=O)[nH]c4c(C)c(OC)ccc4c3=O)C[C@@H]21 [Example 77, hydrochloride]	Kb	nM	2.95
COc1cc2ncn(CCN3C[C@@H]4CCc5c(OC)cccc5[C@@H]4C3)c(=O)c2cc1OC (relative stereo) [Example 33, dihydrochloride]	Kb	nM	20.4
COc1cccc2c1CC[C@H]1CN(CCn3c(=O)[nH]c4c(C)c(C)ccc4c3=O)C[C@@H]21 [Example 80, hydrochloride]	Kb	nM	11.7
